The values you see were collected from ChEMBL document CHEMBL1141544.

assay_procedure: Oral bioavailability in rat
Assay type: ADME, organism-based
condition_context: in vivo
quantity: bioavailability (%)
Field format: number, assumed %, no unit text.

q: Reported bioavailability for Cc1cc(C)n(-c2cc(NC(=O)COc3cccc(CN(C)C)c3)nc(-c3ccc(C)o3)n2)n1 : what is it?
a: 19

====

assay_procedure: Plasma clearance in rat
Type: ADME, organism-based
quantity: clearance (mL/min/kg)
Field format: number, assumed mL/min/kg, no unit text.

q: Reported clearance for Cc1cc(C)n(-c2cc(NC(=O)COc3cccc(CN(C)C)c3)nc(-c3ccc(C)o3)n2)n1 : what is it?
a: 330

====

Below: a set of entries, each annotated with reported pKi.
system: Adenosine receptor A2a (Homo sapiens)
assay_procedure: Displacement of [3H]ZM-241385 from human adenosine A2A receptor expressed in HEK293 cells
Format: cell-based
Kindly note that pKi refers to -log10 of the concentration in mol/L and answer with the value alone.

{"columns": ["line_notation", "quantity", "result_value"],
 "data": [
  ["Cc1ccc(OCC(=O)Nc2cc(-n3nc(C)cc3C)nc(-c3ccc(C)o3)n2)c(CN(C)C)c1", "pKi", 9.00]
]}

// next entry
q: Reported pKi for Cc1cc(C)n(-c2cc(NC(=O)COc3cccc(CN(C)C)c3)nc(-c3ccc(C)o3)n2)n1 : what is it?
a: 9.40

====

system: Adenosine receptor A1 (Homo sapiens)
Sequence (P30542 whole entry): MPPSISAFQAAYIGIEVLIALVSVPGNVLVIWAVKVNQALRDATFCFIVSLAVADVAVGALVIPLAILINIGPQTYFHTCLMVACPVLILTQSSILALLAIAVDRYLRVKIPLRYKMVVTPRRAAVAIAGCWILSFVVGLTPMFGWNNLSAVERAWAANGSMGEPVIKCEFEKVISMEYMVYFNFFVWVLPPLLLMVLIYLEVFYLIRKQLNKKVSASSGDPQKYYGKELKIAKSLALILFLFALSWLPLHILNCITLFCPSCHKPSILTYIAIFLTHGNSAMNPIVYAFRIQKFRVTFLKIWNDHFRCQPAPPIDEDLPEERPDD
assay_procedure: Binding affinity at adenosine A1 receptor
quantity: Ki (nM)
Field format: number, assumed nM, no unit text.

q: Reported Ki for Cc1ccc(-c2nc(NC(=O)CCc3ccccc3F)cc(-c3nccs3)n2)o1 : what is it?
a: 410

====

Organism: Homo sapiens
assay_procedure: Selectivity of Ki for human adenosine A2A receptor over Ki for human adenosine A1 receptor
quantity: Ratio Ki
When you answer, write just the number.

Example results:
{"columns": ["line_notation", "Ratio Ki"],
 "data": [
  ["Cc1cc(C)n(-c2cc(NC(=O)COc3cccc(F)c3)nc(-c3ccc(C)o3)n2)n1", 2600],
  ["Cc1ccc(-c2nc(NC(=O)COc3ccccc3F)cc(-c3nccs3)n2)o1", 87],
  ["Cc1cc(C)n(-c2cc(NC(=O)COc3cccc(CN4CCOCC4)c3)nc(-c3ccc(C)o3)n2)n1", 500],
  ["CC(=O)Nc1cc(-n2cccn2)nc(-c2ccco2)n1", 17],
  ["CCN(C)Cc1cccc(OCC(=O)Nc2cc(-n3nc(C)cc3C)nc(-c3ccc(C)o3)n2)c1", 100],
  ["Cc1cc(C)n(-c2cc(NC(=O)COc3cccc(CN)c3)nc(-c3ccc(C)o3)n2)n1", 100]
]}

q: Reported Ratio Ki for Cc1ccc(-c2nc(NC(=O)CCc3ccccc3F)cc(-c3nccs3)n2)o1 : what is it?
a: 26

q: Reported Ratio Ki for CCNCc1cccc(OCC(=O)Nc2cc(-n3nc(C)cc3C)nc(-c3ccc(C)o3)n2)c1 : what is it?
a: 100

====

system: Adenosine receptor A2a (Homo sapiens, UniProt P29274)
Sequence (P29274 whole entry): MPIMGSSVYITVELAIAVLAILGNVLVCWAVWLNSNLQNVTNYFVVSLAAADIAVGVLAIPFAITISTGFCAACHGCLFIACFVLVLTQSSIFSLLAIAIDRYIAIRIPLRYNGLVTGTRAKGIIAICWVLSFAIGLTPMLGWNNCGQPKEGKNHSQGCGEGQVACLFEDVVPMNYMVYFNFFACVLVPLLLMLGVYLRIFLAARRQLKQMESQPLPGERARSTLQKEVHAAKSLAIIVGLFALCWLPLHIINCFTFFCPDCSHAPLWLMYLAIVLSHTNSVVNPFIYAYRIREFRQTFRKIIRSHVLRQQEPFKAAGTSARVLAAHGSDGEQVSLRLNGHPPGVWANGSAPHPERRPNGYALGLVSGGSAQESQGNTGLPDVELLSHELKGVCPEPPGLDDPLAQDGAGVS
assay_procedure: Displacement of [3H]ZM-241385 from human adenosine A2A receptor expressed in HEK293 cells
Type: cell-based
quantity: Ki (nM)
Field format: number, assumed nM, no unit text.

Example results:
{"columns": ["line_notation", "system", "unit_string", "result_value"],
 "data": [
  ["N#Cc1cccc(OCC(=O)Nc2cc(-c3nccs3)nc(-c3ccccn3)n2)c1", "Adenosine receptor A2a (Homo sapiens, UniProt P29274)", "nM", 1.8],
  ["Cc1cc(C)n(-c2cc(NC(=O)COc3ccccc3CCN3CCOCC3)nc(-c3ccc(C)o3)n2)n1", "Adenosine receptor A2a (Homo sapiens, UniProt P29274)", "nM", 1.2],
  ["O=C(COc1cccc(F)c1)Nc1cc(-c2nccs2)nc(-c2ccccn2)n1", "Adenosine receptor A2a (Homo sapiens, UniProt P29274)", "nM", 3.6],
  ["CCN(C)Cc1cccc(OCC(=O)Nc2cc(-n3nc(C)cc3C)nc(-c3ccc(C)o3)n2)c1", "Adenosine receptor A2a (Homo sapiens, UniProt P29274)", "nM", 0.3],
  ["Cc1cc(C)n(-c2cc(NC(=O)COc3cccc(CN)c3)nc(-c3ccc(C)o3)n2)n1", "Adenosine receptor A2a (Homo sapiens, UniProt P29274)", "nM", 0.7]
]}

q: Reported Ki for Cc1cc(C)n(-c2cc(NC(=O)COc3cccc(CN4CCOCC4)c3)nc(-c3ccc(C)o3)n2)n1 : what is it?
a: 1.2

q: Reported Ki for Cc1cc(C)n(-c2cc(NC(=O)COc3cc(F)cc(CN4CCOCC4)c3)nc(-c3ccc(C)o3)n2)n1 : what is it?
a: 1.4

q: Reported Ki for Cc1cc(C)n(-c2cc(NC(=O)COc3cc(F)cc(CN4CCCC4)c3)nc(-c3ccc(C)o3)n2)n1 : what is it?
a: 0.5

q: Reported Ki for Cc1cc(C)n(-c2cc(NC(=O)COc3ccc(CN(C)C)cc3)nc(-c3ccc(C)o3)n2)n1 : what is it?
a: 0.3

q: Reported Ki for CCNCc1cccc(OCC(=O)Nc2cc(-n3nc(C)cc3C)nc(-c3ccc(C)o3)n2)c1 : what is it?
a: 0.3

q: Reported Ki for Cc1ccc(OCC(=O)Nc2cc(-c3nccs3)nc(-c3ccc(C)o3)n2)cc1 : what is it?
a: 36

q: Reported Ki for Cc1cc(C)nc(OCC(=O)Nc2cc(-n3nc(C)cc3C)nc(-c3ccc(C)o3)n2)n1 : what is it?
a: 3.7

q: Reported Ki for Cc1ccc(-c2nc(NC(=O)COc3ccccc3)cc(-c3nccs3)n2)o1 : what is it?
a: 7.4

q: Reported Ki for Cc1ccc(-c2nc(NC(=O)COc3ccccc3F)cc(-c3nccs3)n2)o1 : what is it?
a: 7.5

q: Reported Ki for COc1cccc(CN(C)C)c1OCC(=O)Nc1cc(-n2nc(C)cc2C)nc(-c2ccc(C)o2)n1 : what is it?
a: 5.7

====

Below: a set of entries, each annotated with reported Ki.
system: Adenosine receptor A1 (Homo sapiens)
assay_procedure: Displacement of [3H]DPCPX from human adenosine A1 receptor expressed in HEK293 cells
Assay type: cell-based
In your response, the unit should come after the numeric value.

q: Lab request: please report Ki under test system Adenosine receptor A1 (Homo sapiens) for Cc1cc(C)n(-c2cc(NC(=O)COc3ccccc3CCN3CCOCC3)nc(-c3ccc(C)o3)n2)n1
a: 1200 nM

q: Lab request: please report Ki under test system Adenosine receptor A1 (Homo sapiens) for COc1cccc(CN(C)C)c1OCC(=O)Nc1cc(-n2nc(C)cc2C)nc(-c2ccc(C)o2)n1
a: 1400 nM

q: Lab request: please report Ki under test system Adenosine receptor A1 (Homo sapiens) for N#Cc1cccc(OCC(=O)Nc2cc(-c3nccs3)nc(-c3ccccn3)n2)c1
a: 87 nM

q: Lab request: please report Ki under test system Adenosine receptor A1 (Homo sapiens) for Cc1ccc(-c2nc(NC(=O)COc3ccccc3F)cc(-c3nccs3)n2)o1
a: 650 nM

q: Lab request: please report Ki under test system Adenosine receptor A1 (Homo sapiens) for CCN(C)Cc1cccc(OCC(=O)Nc2cc(-n3nc(C)cc3C)nc(-c3ccc(C)o3)n2)c1
a: 68 nM

q: Lab request: please report Ki under test system Adenosine receptor A1 (Homo sapiens) for Cc1ccc(-c2nc(NC(=O)COc3cccc(Cl)c3)cc(-c3nccs3)n2)o1
a: 1500 nM

q: Lab request: please report Ki under test system Adenosine receptor A1 (Homo sapiens) for Cc1ccc(-c2nc(NC(=O)COc3cccc(F)c3)cc(-c3nccs3)n2)o1
a: 2200 nM

q: Lab request: please report Ki under test system Adenosine receptor A1 (Homo sapiens) for Cc1cc(C)n(-c2cc(NC(=O)COc3cc(F)cc(CN(C)C)c3)nc(-c3ccc(C)o3)n2)n1
a: 140 nM

q: Lab request: please report Ki under test system Adenosine receptor A1 (Homo sapiens) for Cc1cc(C)nc(OCC(=O)Nc2cc(-n3nc(C)cc3C)nc(-c3ccc(C)o3)n2)n1
a: 95 nM

q: Lab request: please report Ki under test system Adenosine receptor A1 (Homo sapiens) for Cc1cc(C)n(-c2cc(NC(=O)COc3cccc(C#N)c3)nc(-c3ccc(C)o3)n2)n1
a: 25000 nM

q: Lab request: please report Ki under test system Adenosine receptor A1 (Homo sapiens) for Cc1cc(C)n(-c2cc(NC(=O)COc3ccc(CN(C)C)cc3)nc(-c3ccc(C)o3)n2)n1
a: 120 nM

q: Lab request: please report Ki under test system Adenosine receptor A1 (Homo sapiens) for Cc1ccc(-c2nc(NC(=O)COc3cccc(C#N)c3)cc(-c3nccs3)n2)o1
a: 4300 nM

q: Lab request: please report Ki under test system Adenosine receptor A1 (Homo sapiens) for Cc1ccc(-c2nc(NC(=O)COc3ccccc3)cc(-c3nccs3)n2)o1
a: 1100 nM

q: Lab request: please report Ki under test system Adenosine receptor A1 (Homo sapiens) for Cc1ccc(-c2nc(NC(=O)COc3ccc(F)cc3)cc(-c3nccs3)n2)o1
a: 1300 nM

q: Lab request: please report Ki under test system Adenosine receptor A1 (Homo sapiens) for O=C(COc1cccc(F)c1)Nc1cc(-c2nccs2)nc(-c2ccccn2)n1
a: 180 nM

q: Lab request: please report Ki under test system Adenosine receptor A1 (Homo sapiens) for Cc1cc(C)n(-c2cc(NC(=O)COc3cccc(CN)c3)nc(-c3ccc(C)o3)n2)n1
a: 73 nM
